tested_on: XIAP
condition_set: ASO; further: test concentration or dose not given here
These antisense oligonucleotides have a phosphorothioate backbone; sugars and methylation of C are not fully specified.
remaining target (mRNA or protein) (fraction of control) less than 0.6 is Satisfied; remaining target (mRNA or protein) (fraction of control) greater than or equal to 0.6 is Not satisfied.

[
  {
    "biopolymer_sequence": "GATGTCTGCAGGTACACAAG",
    "cat": "Satisfied"
  },
  {
    "biopolymer_sequence": "AATCTGCAATTTGGGGATAC",
    "cat": "Not satisfied"
  },
  {
    "biopolymer_sequence": "TTGTACTGACCATTCTGGAT",
    "cat": "Satisfied"
  },
  {
    "biopolymer_sequence": "AGCATGTTGTTCCCAAGGGT",
    "cat": "Satisfied"
  },
  {
    "biopolymer_sequence": "TCTGCATGTGTCTCAGATGG",
    "cat": "Satisfied"
  }
]

Identify whether the sequence ACAATACATGGCAGGGTTCC records remaining target (mRNA or protein) (fraction of control) below 0.6.
Satisfied

Identify whether the sequence AAAAGTCATCTTCTCTTGAA records remaining target (mRNA or protein) (fraction of control) below 0.6.
Satisfied

Identify whether the sequence TAGAGTCCAGCACTTGCTAA records remaining target (mRNA or protein) (fraction of control) below 0.6.
Satisfied

Identify whether the sequence AAACTGTTAAAAGTCATCTT records remaining target (mRNA or protein) (fraction of control) below 0.6.
Not satisfied

Identify whether the sequence ATTTGTTAAGCCTATCTGAA records remaining target (mRNA or protein) (fraction of control) below 0.6.
Not satisfied

Identify whether the sequence CATCTTCTCTTGAAAATAGG records remaining target (mRNA or protein) (fraction of control) below 0.6.
Not satisfied

Identify whether the sequence CACTCCTCAAGTGAATGAGT records remaining target (mRNA or protein) (fraction of control) below 0.6.
Satisfied

Identify whether the sequence TCTTCTCTTGAAAATAGGAC records remaining target (mRNA or protein) (fraction of control) below 0.6.
Not satisfied

Identify whether the sequence GAAATTCCTATCAGAACTCA records remaining target (mRNA or protein) (fraction of control) below 0.6.
Not satisfied

Identify whether the sequence TTGAAAATAGGACTTGTCCA records remaining target (mRNA or protein) (fraction of control) below 0.6.
Not satisfied

Identify whether the sequence GTCATCTTCTCTTGAAAATA records remaining target (mRNA or protein) (fraction of control) below 0.6.
Not satisfied

Identify whether the sequence ATTTATAGTTGCTCCCAGAT records remaining target (mRNA or protein) (fraction of control) below 0.6.
Satisfied

Identify whether the sequence TGCTCTTCAGTACTAATCTC records remaining target (mRNA or protein) (fraction of control) below 0.6.
Satisfied

Identify whether the sequence TTAAAAGTCATCTTCTCTTG records remaining target (mRNA or protein) (fraction of control) below 0.6.
Not satisfied

Identify whether the sequence TATTAACAACATACATACTT records remaining target (mRNA or protein) (fraction of control) below 0.6.
Not satisfied

Identify whether the sequence CAACTAAAACACTGCCATGT records remaining target (mRNA or protein) (fraction of control) below 0.6.
Satisfied

Identify whether the sequence GCATGACAACTAAAGCACCG records remaining target (mRNA or protein) (fraction of control) below 0.6.
Satisfied

###

tested_on: SRA1
condition_set: ASO
These antisense oligonucleotides have a phosphorothioate backbone; sugars and methylation of C are not fully specified.
measure: remaining target (mRNA or protein) (fraction of control)
Number only, please.

Please review the entries below; each comes with its answer.
[
  {
    "biopolymer_sequence": "CTGCTGGAAGCCTGGTAT",
    "tested_on": "SRA1",
    "value_reported": 0.77
  },
  {
    "biopolymer_sequence": "TTTAACTCCTACCATCCA",
    "tested_on": "SRA1",
    "value_reported": 0.89
  },
  {
    "biopolymer_sequence": "ATTTGAGGAGATGGTGTC",
    "tested_on": "SRA1",
    "value_reported": 0.94
  },
  {
    "biopolymer_sequence": "TTGGTAAGCAGCGAGCGC",
    "tested_on": "SRA1",
    "value_reported": 0.56
  },
  {
    "biopolymer_sequence": "AGAGGCAGGACCACTCCC",
    "tested_on": "SRA1",
    "value_reported": 0.92
  },
  {
    "biopolymer_sequence": "AAACTTGTGGGCTCCACG",
    "tested_on": "SRA1",
    "value_reported": 0.18
  },
  {
    "biopolymer_sequence": "GACACCAGAGGGACTAGC",
    "tested_on": "SRA1",
    "value_reported": 0.73
  },
  {
    "biopolymer_sequence": "TCCAAAGGTCTCAGCACA",
    "tested_on": "SRA1",
    "value_reported": 0.26
  }
]

Now, please, on to the next sequence.
Identify measured remaining target (mRNA or protein) (fraction of control) corresponding to GAGCCTCAGACTCGACTG
0.65

###

tested_on: MAP2K6
condition_set: ASO
These antisense oligonucleotides have a phosphorothioate backbone; sugars and methylation of C are not fully specified.
measure: remaining target (mRNA or protein) (fraction of control)
Number only, please.

Please review the entries below; each comes with its answer.
[
  {
    "biopolymer_sequence": "GCTCCAGGTCATCTGCCTTC",
    "value_reported": 0.65
  },
  {
    "biopolymer_sequence": "CTACAAATCTACTTATAATT",
    "value_reported": 0.99
  },
  {
    "biopolymer_sequence": "GTTTCTGTTCCTGGCTATTT",
    "value_reported": 0.79
  },
  {
    "biopolymer_sequence": "ACACATGGCAGGAGGGACAA",
    "value_reported": 0.78
  }
]

Now, please, on to the next sequence.
Identify measured remaining target (mRNA or protein) (fraction of control) corresponding to CAAGTGTCAGAAGAACCAAA
0.7

###

tested_on: DUSP8
condition_set: ASO
These antisense oligonucleotides have a phosphorothioate backbone; sugars and methylation of C are not fully specified.
Reported remaining target (mRNA or protein) (fraction of control) values follow for various sequences
Number only, please.

[
  {
    "biopolymer_sequence": "AGAGCGGGAGATGCCAGCCA",
    "tested_on": "DUSP8",
    "value_reported": 0.32
  },
  {
    "biopolymer_sequence": "AGGAGAGGTGCAGGCCGCGC",
    "tested_on": "DUSP8",
    "value_reported": 0.91
  },
  {
    "biopolymer_sequence": "TCACCTTGCCCTGCTGCAGC",
    "tested_on": "DUSP8",
    "value_reported": 0.33
  }
]

Now, please, on to the next sequence.
Identify measured remaining target (mRNA or protein) (fraction of control) corresponding to TCTGCCGGGCCGCATCGCCG
0.35

###

tested_on: GNA12
condition_set: ASO
These antisense oligonucleotides have a phosphorothioate backbone; sugars and methylation of C are not fully specified.
Lab note: class by remaining target (mRNA or protein) (fraction of control), see group 1 = under 0.5, group 2 = from 0.5 up to 0.8, group 3 = 0.8 and over

[
  {
    "biopolymer_sequence": "CCGATCCGGTCCAAGTTG",
    "tested_on": "GNA12",
    "cat": "group 1"
  },
  {
    "biopolymer_sequence": "CTCCAGCAGCGCCTTCTG",
    "tested_on": "GNA12",
    "cat": "group 3"
  },
  {
    "biopolymer_sequence": "AGCATGATGTCCTTCAGG",
    "tested_on": "GNA12",
    "cat": "group 1"
  },
  {
    "biopolymer_sequence": "GGGACGTACAGCTGGAAG",
    "tested_on": "GNA12",
    "cat": "group 2"
  }
]

Into which bin does this sequence go? GTGCATCAACAAGAACCC
group 3

Into which bin does this sequence go? ACTCGCTTCTCCGGCTGA
group 3

Into which bin does this sequence go? GGTGCGCCTGTCCTCCAT
group 1

###

tested_on: IL15
condition_set: ASO
These antisense oligonucleotides have a phosphorothioate backbone; sugars and methylation of C are not fully specified.
Lab note: class by remaining target (mRNA or protein) (fraction of control), see category 1: < 0.4; category 2: ≥ 0.4 and < 0.5; category 3: ≥ 0.5

[
  {
    "biopolymer_sequence": "GCCTCCTACAATACAATC",
    "cat": "category 3"
  },
  {
    "biopolymer_sequence": "ATAATGGTATGGAGGAAG",
    "cat": "category 3"
  }
]

Kindly review the next sequence as well.
Into which bin does this sequence go? AGGCATTAGTAGAGTAAA
category 3
